study target: T1, mouse MAdCAM expressed on cells (mouse, UniProt Q61826 22-405)
T1 construct: whole, on cells
T1 sequence (looked up): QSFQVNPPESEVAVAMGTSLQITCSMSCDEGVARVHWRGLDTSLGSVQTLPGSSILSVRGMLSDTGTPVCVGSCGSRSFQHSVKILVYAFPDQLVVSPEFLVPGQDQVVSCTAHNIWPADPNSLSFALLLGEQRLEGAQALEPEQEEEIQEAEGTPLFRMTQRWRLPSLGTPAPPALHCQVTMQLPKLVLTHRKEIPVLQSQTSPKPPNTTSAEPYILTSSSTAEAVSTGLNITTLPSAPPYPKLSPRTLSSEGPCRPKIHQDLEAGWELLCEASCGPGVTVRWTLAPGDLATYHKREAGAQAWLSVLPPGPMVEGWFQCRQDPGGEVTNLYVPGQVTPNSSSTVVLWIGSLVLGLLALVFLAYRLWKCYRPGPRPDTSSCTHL
assay details: cell binding

binder: MAdCAM Antibody Table 1 Clone 59 (scFv) scFv: EVQLLESGGGLVQPGGSLRLSCAASGFTFSDFWMHWVRQAPGKGLEWISYISGDSGYTNYADSVKGRFTISRDNSKNTLYLQMNSLRAEDTAVYYCARDRPYYYYMDVWGKGTTVTVSSGGGGSGGGGSGGGGSGGGGSDIQMTQSPSSLSASVGDRVTITCRASQSVSRSLAWYQQKPGKAPKLLIYAASSLQSGVPSRFSGSGSGTDFTLTISSLQPEDFATYYCQQYKSYPVTFGQGTKVEIK
binding result: binds

Origin of measurements: patent US20210206856A1
